Provenance of the data: patent US7928121B2

- test_target: Cloned Human Serotonin Receptor, Subtype 7 (h5HT7) (Homo sapiens)
- Construct: purchased PerkinElmer 6120512; host or cells: CHO cells (membranes coated on Basic FlashPlate SMP200)
- Sequence (P34969 whole entry): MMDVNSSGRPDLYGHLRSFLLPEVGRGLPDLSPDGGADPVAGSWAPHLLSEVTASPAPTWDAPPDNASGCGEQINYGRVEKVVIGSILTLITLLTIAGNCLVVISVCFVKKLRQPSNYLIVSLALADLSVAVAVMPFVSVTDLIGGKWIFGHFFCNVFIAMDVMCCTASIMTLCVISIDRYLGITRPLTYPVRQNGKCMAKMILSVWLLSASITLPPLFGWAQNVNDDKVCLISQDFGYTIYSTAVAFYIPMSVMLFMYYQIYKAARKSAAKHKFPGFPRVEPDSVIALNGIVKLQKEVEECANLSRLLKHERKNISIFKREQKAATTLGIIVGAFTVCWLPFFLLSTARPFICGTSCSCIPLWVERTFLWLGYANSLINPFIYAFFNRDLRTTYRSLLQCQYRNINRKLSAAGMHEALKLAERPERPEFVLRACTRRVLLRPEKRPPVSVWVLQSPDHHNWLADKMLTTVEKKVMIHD
- protocol_description: Radioligand binding assay, cloned human serotonin receptor subtype 7 (h5HT7) expressed in CHO cells, [125I]LSD, Flashplate
- recorded_conditions: radioligand [125I]LSD 0.82 nM, room temperature, 240 minutes, triplicate determinations, read-out: 5-HT7 IC-50
Structures can show the parent of a compound that is named as a salt.
Each entry below carries its reported pIC50.
Units for pIC50: none; it is -log10 of a concentration expressed in mol/L.

Worked cases, answers included:
[[record]]
compound = "O=S(=O)(c1cc(Cl)ccc1Cl)N1CCC(CN2CCc3ccccc3C2)CC1 [Compound 3, hydrochloride]"
numeric_result = 7.12

[[record]]
compound = "Cc1cc(S(=O)(=O)N2CCC(CN3CCc4ccccc4C3)CC2)c(C)cc1Cl [Compound 16, hydrochloride]"
numeric_result = 7.44


Which pIC50 value is on record for O=S(=O)(c1ccccc1Cl)N1CCC(CN2CCc3ccccc3C2)CC1 [Compound 2, hydrochloride] ?
7.55

What value of pIC50 has been reported for the following compound? COc1cc2c(cc1OC)CN(CC1CCN(S(=O)(=O)c3cc(Cl)ccc3Cl)CC1)CC2 [Compound 85, hydrochloride]
7.22

Find the recorded pIC50 belonging to O=S(=O)(c1cccc2ccccc12)N1CCC(CN2CCc3ccccc3C2)CC1 [Compound 23, hydrochloride] and report it.
7.08

Any idea what its pIC50 is? The compound is O=S(=O)(c1cc(Cl)c(F)cc1F)N1CCC(CN2CCc3ccccc3C2)CC1 [Compound 1, hydrochloride]
7.15
